Origin of the recorded values: patent US5360803A

# System: CV-1 cells
# MEASUREMENT_NOTES: selective killing assay, colony number reduced to 50% of control, normal monkey kidney epithelial cell line CV-1
# Type: cell-based
# SETUP_CONDITIONS: Primates, CV-1, Table III; normal monkey kidney epithelial cells, 24 hours treatment, colony count after 7 to 10 days
# Text: The control received culture media only.
In plain terms, low IC50, meaning strictly below 10 µg/mL, gives condition met, and everything else gives condition not met.

COMPOUND | STUDY_TARGET | ASSIGNED_CATEGORY
CCn1c(=Cc2sc3c4ccccc4ccc3[n+]2CC)sc(=C2SC=C(C)N2C)c1=O | CV-1 cells | condition met
CCn1c(=Cc2oc3cc4ccccc4cc3[n+]2CC)sc(=C2Sc3ccc4ccccc4c3N2C)c1=O | CV-1 cells | condition not met
CCn1c(=Cc2sc3ccc4ccccc4c3[n+]2CC)sc(=C2Sc3ccc(Cl)cc3N2C)c1=O | CV-1 cells | condition not met
CCn1c(=Cc2sc3ccc(OC)cc3[n+]2CC)sc(=C2Sc3ccc4ccccc4c3N2C)c1=O | CV-1 cells | condition not met
CCn1c(=Cc2cccc[n+]2CC)sc(=C2Sc3c(ccc4ccccc34)N2C)c1=O | CV-1 cells | condition not met
CCn1c(=Cc2sc3ccc4ccccc4c3[n+]2CC)sc(=C2SCCN2C)c1=O | CV-1 cells | condition not met
CCn1c(=Cc2sc3ccccc3[n+]2CC)sc(=C2Sc3ccc(OC)cc3N2C)c1=O | CV-1 cells | condition met
CCn1c(=Cc2sc3ccc(Cl)cc3[n+]2CC)sc(=C2Sc3ccccc3N2C)c1=O | CV-1 cells | condition met

Moving on to another compound below.
Is IC50 strictly under 10 µg/mL for the entry C=CCn1c(=Cc2oc3ccccc3[n+]2CC)sc(=C2Sc3ccccc3N2C)c1=O ?
condition met

* * *

# System: MCF-7 cells
# MEASUREMENT_NOTES: colony assay of Example 1 with human breast carcinoma MCF-7 cell line
# Assay type: cell-based
# SETUP_CONDITIONS: CV-1/MCF-7
# Source text: The control received culture media only.
In plain terms, low Selectivity, meaning strictly below 200, gives T, and everything else gives F.

Observe how each entry below is paired with its result.
COMPOUND | ASSIGNED_CATEGORY
CCn1c(=CC2=[N+](CC)CCS2)sc(=C2Sc3ccccc3N2C)c1=O [Compound 16] | F
CCn1c(=Cc2oc3cc4ccccc4cc3[n+]2CC)sc(=C2C=Cc3ccccc3N2C)c1=O | T
CCn1c(=Cc2sc3ccc4ccccc4c3[n+]2CC)sc(=C2Oc3ccc4ccccc4c3N2C)c1=O | T
CCn1c(=Cc2oc3ccccc3[n+]2C)sc(=C2Sc3ccccc3N2C)c1=O | F
CCn1c(=Cc2sc3c4ccccc4ccc3[n+]2CC)sc(=C2Sc3ccccc3N2C)c1=O | F
CCn1c(=CC2=[N+](CC)CCS2)sc(=C2Sc3ccccc3N2C)c1=O [Compound 335] | T

Is Selectivity strictly under 200 for the entry CCn1c(=Cc2sc3ccccc3[n+]2CC)sc(=C2Sc3ccccc3N2C)c1=O [Compound 336] ?
T

Is Selectivity strictly under 200 for the entry CCn1c(=Cc2cc[n+](CC)c3ccccc23)sc(=C2C=Cc3ccccc3N2C)c1=O ?
T

* * *

Below, each entry is listed with its recorded IC50.
# Tested on: CV-1 cells
# MEASUREMENT_NOTES: selective killing assay, colony number reduced to 50% of control, normal monkey kidney epithelial cell line CV-1
# Assay type: cell-based
# SETUP_CONDITIONS: Primates, CV-1, Table III; normal monkey kidney epithelial cells, 24 hours treatment, colony count after 7 to 10 days
All answers are understood in µg/mL, so give the number only.

Use these answered entries as a reference point.
COMPOUND | IC50 (µg/mL)
CCn1c(=Cc2scc[n+]2CC)sc(=C2Oc3ccc(-c4ccccc4)cc3N2C)c1=O | 10
CCn1c(=Cc2oc3c4ccccc4ccc3[n+]2CC)sc(=C2Sc3ccc4ccccc4c3N2C)c1=O | 6
CCn1c(=Cc2oc3ccccc3[n+]2CC)sc(=C2Oc3ccc4ccccc4c3N2C)c1=O | 4
CCn1c(=Cc2sc3ccccc3[n+]2CC)sc(=C2Sc3ccccc3N2C)c1=O | 10

Query (compound): CC[n+]1c(C=c2sc(=C3Sc4ccccc4N3C)c(=O)n2C2CCCCC2)oc2ccccc21 ; field requested: IC50
2

Query (compound): CCn1c(=Cc2sc3c4ccccc4ccc3[n+]2CC)sc(=C2Sc3ccc(Cl)cc3N2C)c1=O ; field requested: IC50
20

Query (compound): CCn1c(=Cc2sc3ccccc3[n+]2CC)sc(=C2Sc3c(ccc4ccccc34)N2C)c1=O ; field requested: IC50
8

Query (compound): CCn1c(=Cc2oc3ccc4ccccc4c3[n+]2CC)sc(=C2Oc3c(ccc4ccccc34)N2C)c1=O ; field requested: IC50
6

Query (compound): CCn1c(=CC2=[N+](CC)CCS2)sc(=C2Sc3ccc(OC)cc3N2C)c1=O ; field requested: IC50
20

Query (compound): CCN1C(=CC=C(Cl)C=Cc2sc3ccc4ccccc4c3[n+]2CC)Sc2ccc3ccccc3c21 [H, reference compound] ; field requested: IC50
0.1

Query (compound): CCn1c(=Cc2sc3c4ccccc4ccc3[n+]2CC)sc(=C2Sc3ccc4ccccc4c3N2C)c1=O ; field requested: IC50
20

Query (compound): CC[n+]1c(C=c2sc(=C3Sc4ccccc4N3C)c(=O)n2-c2ccccc2)sc2ccccc21 ; field requested: IC50
1.5

Query (compound): CCN1/C(=C/C=C/c2sc3ccccc3[n+]2CC)Sc2ccccc21 [A, reference compound] ; field requested: IC50
0.6

Query (compound): CCn1c(=Cc2oc3ccc4ccccc4c3[n+]2CC)sc(=C2Sc3ccccc3N2C)c1=O ; field requested: IC50
8

Query (compound): CCn1c(=Cc2sc3ccccc3[n+]2CC)sc(=C2Sc3ccc(Cl)cc3N2C)c1=O ; field requested: IC50
0.05

Query (compound): CCn1c(=Cc2[se]c3ccccc3[n+]2CC)sc(=C2Sc3ccc(Cl)cc3N2C)c1=O ; field requested: IC50
20

Query (compound): CCn1c(=CC2=[N+](CC)CCS2)sc(=C2Sc3ccccc3N2C)c1=O ; field requested: IC50
20

Query (compound): CCn1c(=Cc2sc3c4ccccc4ccc3[n+]2CC)sc(=C2Sc3ccc(OC)cc3N2C)c1=O ; field requested: IC50
10

Query (compound): CCn1c(=Cc2cc[n+](CC)c3ccccc23)sc(=C2Sc3ccccc3N2C)c1=O ; field requested: IC50
1.5

Query (compound): CCn1c(=Cc2sc3ccc(Cl)cc3[n+]2CC)sc(=C2Sc3ccc4ccccc4c3N2C)c1=O ; field requested: IC50
20

Query (compound): CCn1c(=Cc2oc3cc4ccccc4cc3[n+]2CC)sc(=C2C=Cc3ccccc3N2C)c1=O ; field requested: IC50
8

Query (compound): CCn1c(=Cc2sc3ccc4ccccc4c3[n+]2CC)sc(=C2C=Cc3ccccc3N2C)c1=O ; field requested: IC50
20

Query (compound): CCn1c(=CC2=[N+](CC)CCS2)sc(=C2Sc3ccc4ccccc4c3N2C)c1=O ; field requested: IC50
10

Query (compound): CCn1c(=Cc2oc3cc4ccccc4cc3[n+]2CC)sc(=C2Sc3ccccc3N2C)c1=O ; field requested: IC50
10

Query (compound): CCn1c(=Cc2sc3ccc4ccccc4c3[n+]2CC)sc(=C2Sc3ccc(C(F)(F)F)cc3N2C)c1=O ; field requested: IC50
6

Query (compound): CCn1c(=Cc2oc3ccc(OC)cc3[n+]2CC)sc(=C2Sc3ccccc3N2C)c1=O ; field requested: IC50
6

Query (compound): CCN1C(=CC(C)=Cc2sc3c4ccccc4ccc3[n+]2CC)Sc2c1ccc1ccccc21 [G, reference compound] ; field requested: IC50
0.1

Query (compound): CCn1c(=Cc2sc3ccc4ccccc4c3[n+]2CC)sc(=C2Sc3ccccc3N2C)c1=O ; field requested: IC50
2

Query (compound): CN1C(=c2sc(=Cc3oc4ccccc4[n+]3C)n(C)c2=O)Sc2ccccc21 ; field requested: IC50
10

Query (compound): CCn1c(=Cc2oc3c4ccccc4ccc3[n+]2CC)sc(=C2Sc3c(ccc4ccccc34)N2C)c1=O ; field requested: IC50
20

* * *

# System: CV-1 cells
# MEASUREMENT_NOTES: selective killing assay, colony number reduced to 50% of control, normal monkey kidney epithelial cell line CV-1
# Assay type: cell-based
# SETUP_CONDITIONS: Primates, CV-1, 24 h, Table VII; 24 hours treatment
READOUT_LABEL: IC50 (µg/mL)
All answers are understood in µg/mL, so give the number only.

Use these answered entries as a reference point.
MOLECULE | STUDY_TARGET | UNIT_SYMBOL | IC50
CCN1C(=c2sc(=Cc3oc4ccccc4[n+]3CC)n(CC)c2=O)Sc2ccccc21 [Compound 19] | CV-1 cells | µg/mL | 10
CCn1c(=Cc2sc3ccccc3[n+]2CC)sc(=C2Sc3ccccc3N2C)c1=O [Compound 2] | CV-1 cells | µg/mL | 10

Query (molecule): CCn1c(=CC2=[N+](CC)CCS2)sc(=C2Oc3ccc4ccccc4c3N2C)c1=O [Compound 215] ; field requested: IC50
20

Query (molecule): CCn1c(=Cc2sc3c4ccccc4ccc3[n+]2CC)sc(=C2Sc3ccc4ccccc4c3N2C)c1=O [Compound 82] ; field requested: IC50
20

Query (molecule): CCn1c(=Cc2sc3ccccc3[n+]2CC)sc(=C2Sc3ccc4ccccc4c3N2C)c1=O [Compound 310] ; field requested: IC50
2

Query (molecule): CCn1c(=Cc2cccc[n+]2CC)sc(=C2Sc3c(ccc4ccccc34)N2C)c1=O [Compound 239] ; field requested: IC50
20
